Reference source for all entries: patent US10851098B2

TESTED_ON: human αVβ6 (Homo sapiens, UniProt P06756+P18564)
Sequence (P06756 31-992 limits assumed): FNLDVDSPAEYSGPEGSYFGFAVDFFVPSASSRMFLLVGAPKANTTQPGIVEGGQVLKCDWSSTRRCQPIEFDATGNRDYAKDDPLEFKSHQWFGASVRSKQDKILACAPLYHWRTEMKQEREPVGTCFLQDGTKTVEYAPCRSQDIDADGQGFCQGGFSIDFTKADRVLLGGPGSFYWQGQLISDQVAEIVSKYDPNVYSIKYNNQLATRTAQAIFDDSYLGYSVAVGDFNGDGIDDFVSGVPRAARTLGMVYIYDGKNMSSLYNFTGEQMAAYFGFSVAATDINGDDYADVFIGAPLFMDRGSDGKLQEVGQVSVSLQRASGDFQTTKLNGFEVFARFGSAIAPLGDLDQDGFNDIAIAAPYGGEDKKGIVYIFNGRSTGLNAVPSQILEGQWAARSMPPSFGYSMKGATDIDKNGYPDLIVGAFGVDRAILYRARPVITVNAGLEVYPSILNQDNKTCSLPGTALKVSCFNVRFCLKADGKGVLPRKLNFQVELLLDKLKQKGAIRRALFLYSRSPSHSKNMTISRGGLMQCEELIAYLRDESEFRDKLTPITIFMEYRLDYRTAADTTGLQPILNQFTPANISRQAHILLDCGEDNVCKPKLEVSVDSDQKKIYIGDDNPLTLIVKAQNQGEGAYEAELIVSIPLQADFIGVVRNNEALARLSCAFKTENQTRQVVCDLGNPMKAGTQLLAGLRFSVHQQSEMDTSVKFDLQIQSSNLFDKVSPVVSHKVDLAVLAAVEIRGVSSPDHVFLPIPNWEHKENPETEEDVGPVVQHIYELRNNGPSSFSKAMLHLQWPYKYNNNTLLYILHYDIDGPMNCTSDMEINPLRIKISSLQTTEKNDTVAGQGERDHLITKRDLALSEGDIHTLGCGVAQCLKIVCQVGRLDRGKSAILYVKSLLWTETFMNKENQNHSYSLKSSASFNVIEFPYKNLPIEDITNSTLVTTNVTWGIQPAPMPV
Sequence (P18564 22-707 limits assumed): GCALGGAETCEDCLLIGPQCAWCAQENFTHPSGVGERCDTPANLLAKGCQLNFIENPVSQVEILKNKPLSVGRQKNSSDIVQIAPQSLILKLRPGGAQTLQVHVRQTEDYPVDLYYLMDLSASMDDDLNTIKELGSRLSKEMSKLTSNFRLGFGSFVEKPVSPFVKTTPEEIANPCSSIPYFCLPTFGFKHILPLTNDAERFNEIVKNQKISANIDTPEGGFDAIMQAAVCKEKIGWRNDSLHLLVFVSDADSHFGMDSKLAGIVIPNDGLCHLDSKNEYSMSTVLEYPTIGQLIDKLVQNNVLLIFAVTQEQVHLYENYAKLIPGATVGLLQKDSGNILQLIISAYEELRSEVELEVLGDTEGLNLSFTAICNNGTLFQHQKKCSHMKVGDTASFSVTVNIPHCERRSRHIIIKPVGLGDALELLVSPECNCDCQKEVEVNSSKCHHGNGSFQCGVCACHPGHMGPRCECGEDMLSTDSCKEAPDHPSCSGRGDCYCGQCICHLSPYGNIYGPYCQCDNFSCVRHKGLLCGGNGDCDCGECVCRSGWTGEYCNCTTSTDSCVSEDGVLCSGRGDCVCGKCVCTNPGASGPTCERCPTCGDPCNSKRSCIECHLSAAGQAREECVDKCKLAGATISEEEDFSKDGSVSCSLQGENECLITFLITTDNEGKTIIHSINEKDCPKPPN
PROTOCOL_DETAILS: human αVβ6 HTRF binding assay
Source text: All binding assays used the HTRF (homogeneous time resolved fluorescence) technology from Cisbio International, therefore all assays are described as HTRF binding assays. The assay results for the Examples are listed above together with the characterization data. The HTRF binding assays are established for the following integrins: human αVβ6, human αVβ1, human αVβ3, human αVβ5, and human αVβ8. […]
MEASUREMENT_LABEL: IC50 (nM)

- COMPOUND: "CC(C)CC(CC(=O)O)NC(=O)c1cnn(CCc2ccc3c(n2)NCCC3)c1 (stereo not drawn)"
  IC50 [nM]: 399

(I) O=C(O)CC(NC(=O)c1cnn(CCc2ccc3c(n2)NCCC3)c1CO)c1cc(F)cc(F)c1 (stereo not drawn)
(II) Cc1nc2c(cc1CCn1ncc(C(=O)NC(CC(=O)O)c3cc(Cl)cc(Cl)c3)c1COC(C)(C)C)CCCN2 (stereo not drawn)
input: Lowest IC50? choose I or II Your choice should be expressed through its label.
output: I

---

TESTED_ON: human αVβ6 (Homo sapiens, UniProt P06756+P18564)
PROTOCOL_DETAILS: human αVβ6 HTRF binding assay
pIC50: −log10 of the molar value.
MEASUREMENT_LABEL: pIC50

(P) Cc1nc2c(cc1CCn1ncc(C(=O)NC(CC(=O)O)c3cc(Cl)cc(Cl)c3)c1CO)CCCN2 (stereo not drawn)
(Q) O=C(N[C@@H](CNC(=O)c1cnn(CCc2ccc3c(n2)NCCC3)c1)C(=O)O)OCCF
(R) COc1ccc([C@H](CC(=O)O)NC(=O)c2cnn(CCc3ccc4c(n3)NCCC4)c2CO)cn1
input: # rank above entries by pIC50 (max first, min last) List the labels, following the order given in the request.
output: Q, R, P

---

TESTED_ON: human αVβ6 (Homo sapiens, UniProt P06756+P18564)
PROTOCOL_DETAILS: human αVβ6 HTRF binding assay
Source text: All binding assays used the HTRF (homogeneous time resolved fluorescence) technology from Cisbio International, therefore all assays are described as HTRF binding assays. The assay results for the Examples are listed above together with the characterization data. The HTRF binding assays are established for the following integrins: human αVβ6, human αVβ1, human αVβ3, human αVβ5, and human αVβ8. […]
MEASUREMENT_LABEL: IC50 (nM)

(P) O=C(NC[C@H](NS(=O)(=O)Cc1cccc(Cl)c1)C(=O)O)c1cnn(CCc2ccc3c(n2)NCCC3)c1 [Example 163]
(Q) CC(C)(C)OCc1c(C(=O)NC(CC(=O)O)c2cc(Cl)cc(Cl)c2)cnn1CCc1ccc2c(n1)NCCC2 (centres unmarked) [Example 41]
(R) O=C(NC[C@@H](NC(=O)[C@@H]1CCCN1S(=O)(=O)c1ccccc1)C(=O)O)c1cnn(CCc2ccc3c(n2)NCCC3)c1 [Example 21]
(S) O=C(N[C@H](CNC(=O)c1cn(CCc2ccc3c(n2)NCCC3)cn1)C(=O)O)OCc1ccccc1 [Example 121]
(T) O=C(O)C[C@H](NC(=O)c1ncn(CCc2ccc3c(n2)NCCC3)n1)c1cc(Cl)cc(Cl)c1 [Example 120]
input: Hey, quick one: sort these by IC50, largest value first please. List the labels, following the order given in the request.
output: T, Q, P, S, R
